Source: patent US12357657B2

pKd: −log10 of the molar value.
Measured pKd on UniProt:A0A0R6L508 follows.
Sequence (A0A0R6L508 200-541): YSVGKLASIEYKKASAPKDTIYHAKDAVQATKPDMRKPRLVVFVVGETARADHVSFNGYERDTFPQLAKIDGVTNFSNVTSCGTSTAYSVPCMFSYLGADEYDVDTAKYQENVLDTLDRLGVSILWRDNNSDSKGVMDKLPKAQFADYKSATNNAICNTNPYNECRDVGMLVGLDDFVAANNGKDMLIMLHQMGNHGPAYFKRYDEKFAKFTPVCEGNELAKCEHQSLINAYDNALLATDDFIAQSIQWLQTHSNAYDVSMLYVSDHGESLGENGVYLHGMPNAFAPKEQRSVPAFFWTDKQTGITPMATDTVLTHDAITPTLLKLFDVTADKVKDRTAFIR

| COMPOUND | pKd |
| --- | --- |
| [Zn+2] [Zn(Ac)2, zinc(II) acetate] | ~5.61 |
| [Ag+] [AgNO3, silver nitrate] | ~6.70 |
